Reference source: patent US20100130408A1

# test: Cell viability of HSCs
# Assay type: cell-based
# recorded conditions: male, Wistar, rat, primary hepatic stellate cells (HSCs), 2 μM NIM811, serum-free conditions
measured quantity: viability at 24 h, 2 µM

Give a short answer stating reported viability at 24 h, 2 µM for C/C=C/C[C@@H](C)[C@@H](O)[C@H]1C(=O)N[C@@H](CC)C(=O)N(C)CC(=O)N(C)[C@@H]([C@@H](C)CC)C(=O)N[C@@H](C(C)C)C(=O)N(C)[C@@H](CC(C)C)C(=O)N[C@@H](C)C(=O)N[C@H](C)C(=O)N(C)[C@@H](CC(C)C)C(=O)N(C)[C@@H](CC(C)C)C(=O)N(C)[C@@H](C(C)C)C(=O)N1C [NIM811] .
> 90%
